# Conditions Used: Day 15; G3-G9 groups; single IP dose; Mean±SEM
Weight of mice, Day 15: recorded values
Write it as a number; the unit g goes unstated.

The cases that follow already have their Weight of mice, Day 15 on record.
Smiles Record | Weight of mice, Day 15 [g]
CCCCOC(=O)Nc1nc(=O)n([C@@H]2O[C@H](CO)[C@@H](O)C2(F)F)cc1Br | 20.90
CC(C)(C)OC(=O)Nc1ccn([C@@H]2O[C@H](COC(=O)Cn3cnc([N+](=O)[O-])c3)[C@@H](O)C2(F)F)c(=O)n1 | 21.60
O=C(Nc1nc(=O)n([C@@H]2O[C@H](CO)[C@@H](O)C2(F)F)cc1Br)OCc1ccccc1 | 23.27
O=C(Nc1ccn([C@@H]2O[C@H](CO)[C@@H](O)C2(F)F)c(=O)n1)OCc1ccc([N+](=O)[O-])cc1 | 22.35
O=C(Nc1ccn([C@@H]2O[C@H](CO)[C@@H](O)C2(F)F)c(=O)n1)OCc1ccccc1 | 22.10

Input line: Fill blank: measured Weight of mice, Day 15 of the compound CC(C)(C)OC(=O)Nc1ccn([C@@H]2O[C@H](CO)[C@@H](O)C2(F)F)c(=O)n1 is ____.
Output line: 21.18
